Molecular target: human RXFP1 (Homo sapiens)
Sequence (Q9HBX9 1-757): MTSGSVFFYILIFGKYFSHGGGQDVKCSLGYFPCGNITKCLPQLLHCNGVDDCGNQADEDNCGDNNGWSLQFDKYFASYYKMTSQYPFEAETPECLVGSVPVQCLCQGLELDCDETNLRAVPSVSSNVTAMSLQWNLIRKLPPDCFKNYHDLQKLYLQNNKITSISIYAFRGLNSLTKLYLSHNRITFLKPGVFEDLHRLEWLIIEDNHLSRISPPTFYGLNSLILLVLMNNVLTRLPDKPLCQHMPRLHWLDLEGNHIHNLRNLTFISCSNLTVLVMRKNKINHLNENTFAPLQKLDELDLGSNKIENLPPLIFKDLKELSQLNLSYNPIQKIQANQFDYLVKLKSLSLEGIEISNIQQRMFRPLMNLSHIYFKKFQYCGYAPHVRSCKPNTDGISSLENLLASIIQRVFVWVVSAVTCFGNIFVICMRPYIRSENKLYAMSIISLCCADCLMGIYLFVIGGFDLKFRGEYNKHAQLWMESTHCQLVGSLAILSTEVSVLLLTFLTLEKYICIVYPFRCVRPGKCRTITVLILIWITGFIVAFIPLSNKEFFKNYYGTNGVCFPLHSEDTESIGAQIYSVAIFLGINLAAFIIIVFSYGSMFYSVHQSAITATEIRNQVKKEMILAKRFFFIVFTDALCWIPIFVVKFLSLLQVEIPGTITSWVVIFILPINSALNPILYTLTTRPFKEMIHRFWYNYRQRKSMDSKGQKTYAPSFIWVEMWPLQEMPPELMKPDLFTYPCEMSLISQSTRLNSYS
Test: RXFP1 Hu cAMP (Test A)
Format: cell-based
Set-up: expressed in transfected cells; host or cells: Jump-In T-REx CHO-K1 cells (ThermoFisher), induced with 10 ng/ml doxycycline for 24 h
Conditions: RXFP1 Hu cAMP; read-out: Test A EC50
pEC50: −log10 of the molar value.
measurement_type: pEC50

>  <molecule>
COc1cc(F)c(O[C@H]2CC[C@@](C)(C(=O)O)CC2)cc1C(=O)N[C@H]1[C@@H](C(=O)NCC2(C)CCC2)[C@H]2CC[C@@H]1O2 (racemic) [Example 331]

>  <pEC50>
6.59

$$$$
>  <molecule>
COc1cc(C#N)c(O[C@H]2C[C@]3(C2)C[C@H](C(=O)O)C3)cc1C(=O)N[C@@H]1[C@H]2CC[C@H](C2)[C@@H]1C(=O)NCC1(C)CCC1 (single isomer, unassigned) [Example 7]

>  <pEC50>
5.89

$$$$
>  <molecule>
COc1cc(F)c(O[C@H]2CC[C@@](C)(C(=O)O)CC2)cc1C(=O)N[C@@H]1[C@H]2CC[C@H](C2)[C@@H]1C(=O)N[C@H](C)C(F)(F)F [Example 597]

>  <pEC50>
6.40

$$$$
>  <molecule>
COc1cc(C#N)c(O[C@H]2C[C@@]3(C2)C[C@H](C(=O)O)C3)cc1C(=O)N[C@@H]1[C@H]2CC[C@H](C2)[C@@H]1C(=O)NCC1(C)CCC1 (single isomer, unassigned) [Example 6]

>  <pEC50>
6.14

$$$$

[1] COc1cc(F)c(O[C@H]2CC[C@@](C)(C(=O)O)CC2)cc1C(=O)N[C@@H]1[C@H]2CC[C@H](C2)[C@@H]1C(=O)NC1CCCC1(C)C (relative stereo) [Example 503]
[2] COc1cc(F)c(O[C@H]2CC[C@@H](C(=O)O)CC2)cc1C(=O)N[C@@H]1[C@H]2CC[C@H](C2)[C@@H]1C(=O)Nc1cc(C(F)(F)F)ccn1 [Example 14]
[3] COc1cc(F)c(O[C@H]2CC[C@@H](C(=O)O)CC2)cc1C(=O)N[C@@H]1[C@H]2CC[C@H](C2)[C@@H]1C(=O)Nc1cccc(C(F)(F)F)c1C [Example 24]
[4] COc1cc(F)c(-c2ccc(C(=O)O)cc2)cc1C(=O)N[C@H]1[C@@H](C(=O)N[C@H]2CCCN(S(=O)(=O)C(F)(F)F)C2)[C@@H]2C=C[C@H]1C2 (racemic) [Example 311]
**Q:** Form: Sort by [pEC50] Order [ ascending ] Lab note: final answer is the ordered label list.
**A:** 4, 3, 2, 1
(4: 5.11, 3: 6.00, 2: 6.29, 1: 7.22)
